Assay target: CREBZF (Homo sapiens, UniProt Q9NS37)
Construct: made in house
Sequence (Q9NS37 204-267 limits assumed): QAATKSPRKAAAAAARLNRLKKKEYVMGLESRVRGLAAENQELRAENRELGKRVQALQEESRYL
Test description: Direct-binding FRET assay
Run conditions: 4°C; N-terminal rhodamine design; mean or single
Where no end group is shown, it is not given here.
Measured endpoint: Kd

Problem: # Kd lookup, item SIAATLEKEEANLEKMNKKLAAEIESLLKEKDKLESVLNYHE [JUN-d1]
Solution: > 1 µM

----------
Assay target: NFE2L1 (Homo sapiens, UniProt Q14494)
Sequence (Q14494 654-717 limits assumed): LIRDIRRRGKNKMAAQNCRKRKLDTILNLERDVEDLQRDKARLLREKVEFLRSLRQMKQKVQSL
Test description: Direct-binding FRET assay
Design: made in house
Run conditions: 37°C; C-terminal rhodamine design; mean or single; read-out: Kd
Method: The direct binding assay was performed manually in 384-well plates and is similar to a previously described assay. Wells were filled with 20 μL of 1 mM TCEP-HCl. […] Briefly, the Kd of the designed peptide homodimer was experimentally determined and used with previously determined target homodimer Kd values to determine the heterodimer Kd. […] A minimum 15% change in the donor fluorescence upon titrating the acceptor peptide from 0 to 1000 nM was required for a fit to be attempted. […]
Where no end group is shown, it is not given here.
Please provide measured Kd for the entries that follow.

Some sequences with recorded Kd:
{"Seq text": "KRIAYLRQRIAELRNENHVLESRIQRMEKEKDALQQDRDHLEYEL [ATF5-d1]", "Kd": "> 5000 nM"}
{"Seq text": "EREAQLENRVAHLKEKNQELKAQNLHLKEALSEAQNRNQELKNDA [XBP1-d1]", "Kd": "> 1000 nM"}

Problem: # Kd lookup, item NQIKTLRTRLSKLRKDNLQLEKDIANLERKAKDLRAEKEQLEYEL [ATF4-d1]
Solution: > 1000 nM
